Source listed as paper PMC3850785.

# Substrate: C1O[C@H]1[C@H]1CO1
# PROTOCOL SUMMARY: purified protein
# PARTICULARS: 5 mM GSH, 0.10 M Tris-HCl pH 7.7, 37 °C, 1 h
Collected kcat values appear next to each entry.

PROTEIN	kcat [s⁻¹]
human GST T1-1 (Homo sapiens) (protein) GLELYLDLLSQPCRAVYIFAKKNDIPFELRIVDLIKGQHLSDAFAQVNPLKKVPALKDGDFTLTESVAILLYLTRKYKVPDYWYPQDLQARARVDEYLAWQHTTLRRSCLRALWHKVMFPVFLGEPVSPQTLAATLAELDVTLQLLEDKFLQNKAFLTGPHISLADLVAITELMHPVGAGCQVFEGRPKLATWRQRVEAAVGEDLFQEAHEVILKAKDFPPADPTIKQKLMPWVLAMIR	0.0617
human GST A1-1 (Homo sapiens) (protein) AEKPKLHYFNARGRMESTRWLLAAAGVEFEEKFIKSAEDLDKLRNDGYLMFQQVPMVEIDGMKLVQTRAILNYIASKYNLYGKDIKERALIDMYIEGIADLGEMILLLPVCPPEEKDAKLALIKEKIKNRYFPAFEKVLKSHGQDYLVGNKLSRADIHLVELLYYVEELDSSLISSFPLLKALKTRISNLPTVKKFLQPGSPRKPPMDEKSLEEARKIFRF	0.0218
